The values you see were collected from ChEMBL document CHEMBL4251631.

# PROTOCOL_NOTES: Half life in RPMI/FBS cell culture media 9:1 (v/v) at 2 mM by HPLC analysis
# Assay type: physicochemical
# MEASUREMENT_CONDITIONS: cattle
MEASUREMENT_NAME: half-life at 2000 µM (h)

O=C(O[C@H]1C[C@H](n2cc(F)c(=O)[nH]c2=O)O[C@@H]1COP(=O)(O)Oc1cccnc1)c1ccccc1 = 6.7

(A) CCOC(=O)C[n+]1cccc(OP(=O)([O-])OC[C@H]2O[C@@H](n3cc(F)c(=O)[nH]c3=O)C[C@@H]2OC(=O)c2ccccc2)c1
(B) O=C(O[C@H]1C[C@H](n2cc(F)c(=O)[nH]c2=O)O[C@@H]1COP(=O)(O)Oc1ccccc1)c1ccccc1
Input line: I'm curious, which of these has a smaller half-life at 2000 µM number: A or B ? I would appreciate it if you answered with the label of your choice.
Output line: A
(A: 1.1 h, B: 6.6 h)
